- Tested on: OVCAR-8 ovarian
- method_notes: NCI tumour cell line growth inhibition, 48 h; in the data active = GI50 below about 0.43 µM; inactive = the rest
Respond with a class label; see yes (1) (active), no (0) (inactive)

Answered cases to consult:
O=C(N[C@@H](Cc1coc2ccccc12)B(O)O)[C@@H]1C[C@H]2CC[C@@H]1O2
no (0)
COc1cc(/C=C2\CCC/C(=C\c3ccc(OCC4CO4)c(OC)c3)C2=O)ccc1OCC1CO1 (stereo not given)
no (0)

What did the test return for COc1ccc(-c2noc(N)c2-c2cc(OC)c3c(c2)OCO3)cc1 ?
no (0)

What did the test return for CNCCn1c(=O)c2cc(OC)c(OC)cc2c2cnc3cc4c(cc3c21)OCO4 ?
yes (1)

What did the test return for Cn1cc(-c2csc(-c3cn(C)c4ccc(F)cc34)n2)c2cnccc21 ?
no (0)

----------
Listing of recorded TGI by entry.
- System: HOP-62 NSCLC
- method_notes: NCI tumour cell line growth inhibition, 48 h

Solved cases (6 shown):
CN1CCN(/C(N)=C(\C#N)C(=O)Nc2ccc(Cl)cc2)CC1
> 100 µM
CC(=O)OC(CCC1(C)OC1COc1ccc(CCNC(=O)C=C(C)C)cc1)C(C)(C)OC(C)=O (stereo unspecified)
> 100 µM
COc1ccc2nc3cc(Cl)ccc3c(Sc3ccc(NC(C)=O)cc3)c2c1
> 60.2 µM
O=Cc1ccc(-c2ccc(-c3ccc(CO)s3)o2)s1
> 84.3 µM
Cc1c(Cl)cccc1NC(=O)c1cccc([N+](=O)[O-])c1O
29.3 µM
Cc1ccc2c(c1-c1ccccc1)C(=O)OC2
> 100 µM

Could you please provide reported TGI for O=C1OCC2OC(=O)c3cc(O)c(O)c(O)c3-c3c(O)c(O)c(O)c4c3C(=O)OC(C2OC(=O)c2cc(O)c(O)c(O)c2-c2c1cc(O)c(O)c2O)C1OC(=O)C2C4=C(O)C(=O)C23Oc2cc(O)c4c(c2[C@H]13)O[C@H](c1ccc(O)c(O)c1)[C@@H](O)C4 (stereo partly specified) ? Thanks!
> 100 µM

Could you please provide reported TGI for O=C1CCSCCC(=O)Nc2ccccc2N1 ? Thanks!
> 100 µM

Could you please provide reported TGI for COc1ccc(-c2cc(Nc3ccnc(N4CCOCC4)n3)on2)cc1 ? Thanks!
16.8 µM

----------
- Tested on: HCT-116 colon
- method_notes: NCI tumour cell line growth inhibition, 48 h
Where a SMILES comes first, the peptide text is derived from it. The star is where a group is joined. Cbz = O=C(OCc1ccccc1)*
Listing of recorded TGI by entry.
Output spec: scalar in µM, unitless text.

Solved cases (8 shown):
COc1ccc(C2COc3c(ccc(O)c3C)C2)cc1OC (stereo not given)
153
CCOC(=O)c1c(OCC)[nH]c(=O)c(C(c2cccs2)c2c(O)c(C(=O)OCC)c(OCC)[nH]c2=O)c1O
45
COc1cc(C(=O)O[C@H](C(N)=O)[C@]2(C)CO2)c2cccc(C)c2c1
2.32
O=C(Nc1ccc(Cl)cc1)Nc1nccs1
52.8
Clc1nc(Cl)c2ncn(Cc3ccccc3Cn3cnc4c(Cl)nc(Cl)nc43)c2n1
5.98
C=CC1(CC[C@]2(c3ccc(OC)c(OC)c3)C=[N+]([O-])O[C@H](O[C@@H]3CCCC[C@H]3C(C)(C)c3ccccc3)C2)OCC(C)(C)CO1
41.3
CCCCCCc1cc2cc(C(=O)Nc3ccc(F)cc3)c(=N)oc2cc1O
11.1
CCOC(=O)CCC(NC(=O)C(Cc1ccccc1)NC(=O)OCc1ccccc1)C(=O)OCC (stereo not drawn) (Cbz-Phe-Glu(OEt)-OEt; configuration not given here)
32.1

Could you please provide reported TGI for CS(=O)(=O)CS(=O)(=O)OCCCl ? Thanks!
661

Could you please provide reported TGI for O=C1OCC2OC(=O)c3cc(O)c(O)c(O)c3-c3c(O)c(O)c(O)c4c3C(=O)OC(C2OC(=O)c2cc(O)c(O)c(O)c2-c2c1cc(O)c(O)c2O)C1OC(=O)C2C4=C(O)C(=O)C23Oc2cc(O)c4c(c2[C@H]13)O[C@H](c1ccc(O)c(O)c1)[C@@H](O)C4 (stereo not given in full) ? Thanks!
40.3

Taken from PubChem BioAssay (NCI).
